Below: a set of entries, each annotated with reported melting point.

MOLECULE: CC(C)(CCc1nnn[nH]1)c1ccc(C(=O)Nc2cn3cc(C(F)(F)F)ccc3n2)cc1
melting point: 250 to 251 °C
//
MOLECULE: O=C(NCCO)c1cccc(-c2cccc3nn(Cc4cccc(Cl)c4)cc23)c1
melting point: 202 to 203 °C
//
MOLECULE: CC(C)NC1=NS(=O)(=O)c2cc(Cl)cc(N)c2N1
melting point: > 230 °C
//
MOLECULE: CC(=O)OCC1CCc2c(C3=C(c4cn(C)c5ccccc45)C(=O)OC3=O)c3ccccc3n2CC1 (stereo not given)
melting point: 70 °C
//
MOLECULE: CCCCOc1ccc(-c2ncc(C(=O)OCC)c(Cl)n2)cc1
melting point: 79 °C
//
MOLECULE: CS(=O)(=O)Nc1ccc(C2CCN(c3ccncc3)CC2)cc1
melting point: 269 to 271 °C
//
MOLECULE: Fc1ccc2c(c1)OCc1c(-c3nc(C4CCCC4)no3)ncn1-2
melting point: 134 to 135 °C
//
MOLECULE: CC(=O)NCC1CCN(CCOc2ccccc2)CC1
melting point: 79 to 80 °C
//
MOLECULE: CCCC(=O)Nc1cccc2c1C(=O)c1c-2n[nH]c1-c1ccc(OC)cc1
melting point: 282 °C
//
MOLECULE: COc1cc(C)c2c(c1)OC(C)(C)CC2=O
melting point: 86 to 88 °C
